System: RPMI-8226 leukemia
EXPERIMENT NOTES: NCI tumour cell line growth inhibition, 48 h; in the data active = GI50 below about 0.43 µM; inactive = the rest
Outcomes: true (1) (active), false (0) (inactive)

• CCC[CH2][Sn]1([CH2]CCC)[O]CC(CN2CCCCC2)[O]1 (stereo unspecified) = true (1)
• COc1ccc(/C(C)=C(\c2ccc(Cl)cc2)c2ccc(OCCN3CCCCC3)cc2)cc1 = false (0)
• Clc1ccc2c(N3CCN(c4ccnc(NC5CCCCC5)n4)CC3)ccnc2c1 = false (0)
• O=C(Nc1ccc2[nH]c3ccccc3c2c1)c1ccccc1Cl = false (0)
• CCCC[C@H](NC(=O)[C@H]1CCCCN1C)C(=O)N(C)[C@H](C[C@@H](OC(C)=O)c1nc(C(=O)N[C@@H](Cc2ccccc2)C[C@H](C)C(=O)OCC)cs1)C(C)C = true (1)
• c1cc[n+](C2c3ccccc3C([n+]3ccccc3)c3ccccc32)cc1 (stereo unspecified) = false (0)
• CC[N+](CC)=c1cc2oc3cc(N(C)C)ccc3nc-2cc1C = false (0)
• C1C[OH+]CC[OH+]CC[OH+]CC[OH+]CC[OH+]CC[OH+]1.[Cl-].[V] = false (0)
• COc1cc(Nc2ccnc(NCCNc3ccnc4cc(Cl)ccc34)n2)cc(OC)c1 = false (0)
• C=CC(=O)N1CCN(CCCn2c(=O)c(-c3c(Cl)c(OC)cc(OC)c3Cl)cc3cnc(NC)nc32)CC1 = false (0)
• C[CH2][Sn]([CH2]C)([O]C(=O)c1ccccc1F)[O]C(=O)c1ccccc1F = false (0)
• COC1=C(OC)C(=O)C(CCCCCCCCCC[P+](c2ccccc2)(c2ccccc2)c2ccccc2)=C(C)C1=O = true (1)
• COc1cc2c(/C=C3/C(=O)Nc4c3ccc3ccccc43)c(Cl)n(C)c2cc1C = true (1)
• COc1cccc2[nH]c3c4c(c5c(c3c12)C(=O)N(CN1CCN(C)CC1)C5=O)CCC4 = false (0)
• COc1cc(-c2nccn2-c2ccc3ccccc3c2)cc(OC)c1OC = true (1)
• Nc1n[nH]c2cccc(C#Cc3cccc(NC(=O)c4ccc(N5CCOCC5)c(C(F)(F)F)c4)c3)c12 = false (0)
